target: Heat shock factor protein 1 (Homo sapiens); assay: ATG_HSE_CIS: Attagene CIS-FACTORIAL HepG2 Assay for human Heat Shock Transcription Factor 1 (HSE) (AID 2282953); settings: HepG2 HSE cis-reporter, Attagene RNA transcription; actives raise or lower the signal
Active and inactive are the calls of the source. How the source made its calls: active means hit-call score of the fitted dose curve at least 0.9, where 1 is the maximum; inactive means score below 0.9.
Respond with a class label; see active, inactive

### Prompt Hi team, can someone confirm the assay call for c1cc(-c2ccncc2)ccn1 ?
### Response inactive

### Prompt Now this one: CNCc1cc(F)ccc1Oc1ccc(Cl)c(Cl)c1
### Response inactive

### Prompt Now this one: CC(CO)OC(C)CO (stereo not drawn) (tested in a mixture with another compound)
### Response inactive

### Prompt Now this one: Cc1ccccc1Cl
### Response inactive

### Prompt Now this one: Nc1ccc(S(=O)(=O)c2ccc(N)cc2)cc1
### Response inactive

### Prompt Now this one: COc1ccc2c(c1)c(CC(=O)O)c(C)n2C(=O)c1ccc(Cl)cc1
### Response inactive

### Prompt Now this one: CCCCCCCCCCCCCO
### Response inactive

### Prompt Now this one: Clc1cc(Cl)c(Cl)cc1Cl
### Response inactive

### Prompt Now this one: CNC(=O)[C@H]1O[C@@H](n2cnc3c(NCc4cc(Cl)ccc4OCc4cc(C)no4)ncnc32)[C@H](O)[C@@H]1N
### Response inactive

### Prompt Now this one: CC1=C(/C=C/C(C)=C/C=C/C(C)=C/CO)C(C)(C)CCC1
### Response active

### Prompt Now this one: CCOC(=O)CCC(=O)OCC
### Response inactive

### Prompt Now this one: C=CCc1ccc(O)c(OC)c1
### Response inactive

### Prompt Now this one: O=[N+]([O-])C(CO)(CO)CO
### Response inactive

###

Read-out: cysteine-aspartic acid protease (CASP8), CASP8 (gene 841)
Experiment: LTEA_HepaRG_CASP8: Life Technologies and Expression Analysis (LTEA) Assay for cysteine-aspartic acid protease (CASP8) using HepaRG (AID 2283480)
Conditions: mRNA level, 48 h; actives raise or lower the signal
Protocol: LTEA_HepaRG is a cell based, multiplexed-readout assay that uses HepaRG, a human liver cell line, with measurements taken at 48 hours after chemical dosing on a 96-well plate.LTEA_HepaRG_CASP8 is one of 102 assay component(s) measured in the LTEA HepaRG cell culture assay. It is a marker of Cell proliferation, survival, death.Data from the assay component LTEA_HepaRG_CASP8 was analyzed into 1 endpoint. […]
Activity calls are given as the source filed them. The calls were made as follows: active = hit-call score of the fitted dose curve at least 0.9, where 1 is the maximum; inactive = score below 0.9.
PROPERTY MEASURED: AC50

CC1=C(/C=C/C(C)=C/C=C/C(C)=C/CO)C(C)(C)CCC1
inactive
COc1cc(C=O)ccc1O
inactive
c1cc(-c2ccncc2)ccn1
inactive
Nc1ccc(S(=O)(=O)c2ccc(N)cc2)cc1
inactive
Cc1cc(=O)[nH]c(=S)[nH]1
inactive
NS(=O)(=O)c1cc2c(cc1Cl)NCNS2(=O)=O
inactive
C[C@]12C=CC(=O)C=C1CC[C@@H]1[C@@H]2C(=O)C[C@@]2(C)[C@H]1CC[C@]2(O)C(=O)CO
inactive
Cc1ccc(Cl)cc1
inactive

### Prompt Any idea what AC50 was measured for CCCCCC(=O)O ?
### Response inactive

### Prompt Now this one: CCCCCCCCCCCCCO
### Response inactive

### Prompt Now this one: CCOC(=O)CCC(=O)OCC
### Response 87.3 µM (active)

### Prompt Now this one: CC(CO)OC(C)CO (centres undefined) (tested in a mixture with another compound)
### Response inactive

### Prompt Now this one: CCCCCCOCCO
### Response inactive

### Prompt Now this one: CC(=O)C(C)=CC1C(C)=CCCC1(C)C (centres undefined)
### Response inactive

Source of measurements: PubChem BioAssay (EPA / NIEHS)
